SYSTEM NAME: T1, rat α-CGRP (1-37) (rat, C-terminal amide; N-terminal biotin when captured on the SA chip)
T1 construct: also called rat α (1-37); α-rat
T1 peptide: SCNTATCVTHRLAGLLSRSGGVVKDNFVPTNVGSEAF
PROCEDURE SUMMARY: Biacore, 37°C, Fab over CGRP on SA chip
Kindly return Y if reported koff is no lower than 0.01 s⁻¹; return N if it is lower.

Evaluate G1 variant M11 Fab (Fab, V domains shown, Fab; constant domains as m1) VH: EVQLVESGGGLVQPGGSLRLSCAASGFTFSNYWISWVRQAPGKGLEWVAEIRSESDASATHYAEAVKGRFTISRDNAKNSLYLQMNSLRAEDTAVYYCSTYFDYGLAIQNYWGQGTLVTVSS VL: EIVLTQSPATLSLSPGERATLSCKASKRVTTYVSWYQQKPGQAPRLLIYGASNRYLGIPARFSGSGSGTDFTLTISSLEPEDFAVYYCSQSYNYPYTFGQGTKLEIK : koff at minimum 0.01 s⁻¹?
N

Form field: koff at least 0.01 s⁻¹? Entry: G1 variant M36 Fab (Fab, V domains shown, Fab; constant domains as m1) VH: EVQLVESGGGLVQPGGSLRLSCAASGFTFSNYWISWVRQAPGKGLEWVAEIRSESDASATHYAEAVKGRFTISRDNAKNSLYLQMNSLRAEDTAVYYCTVYFDYGLAIQNYWGQGTLVTVSS VL: EIVLTQSPATLSLSPGERATLSCKASKNVRTYVSWYQQKPGQAPRLLIYGASNRYLGIPARFSGSGSGTDFTLTISSLEPEDFAVYYCSQSYNYPYTFGQGTKLEIK
N

hey, is koff for this one >= 0.01 s⁻¹? G1 variant M57 Fab (Fab, V domains shown, Fab; constant domains as m1) VH: EVQLVESGGGLVQPGGSLRLSCAASGFTFSNYWISWVRQAPGKGLEWVAEIRSKSDNEATHYAEAVKGRFTISRDNAKNSLYLQMNSLRAEDTAVYYCTVYFDYGLAIQNYWGQGTLVTVSS VL: EIVLTQSPATLSLSPGERATLSCKASKNVDTYVSWYQQKPGQAPRLLIYGASNRYSGIPARFSGSGSGTDFTLTISSLEPEDFAVYYCSQSYNYPYTFGQGTKLEIK
Y

Is koff at least 0.01 s⁻¹? Consider G1 variant M80 Fab (Fab, V domains shown, Fab; constant domains as m1; printed L561 read as L56I) VH: EVQLVESGGGLVQPGGSLRLSCAASGFTFSNYWISWVRQAPGKGLEWVAEIRSKSDNVATHYAEAVKGRFTISRDNAKNSLYLQMNSLRAEDTAVYYCTVYFDYGLAIQNYWGQGTLVTVSS VL: EIVLTQSPATLSLSPGERATLSCKASKNVSTYVSWYQQKPGQAPRLLIYGASNRYIGIPARFSGSGSGTDFTLTISSLEPEDFAVYYCSQSYNYPYTFGQGTKLEIK
Y

# bool: koff of G1 variant M44 Fab (Fab, V domains shown, Fab; constant domains as m1) VH: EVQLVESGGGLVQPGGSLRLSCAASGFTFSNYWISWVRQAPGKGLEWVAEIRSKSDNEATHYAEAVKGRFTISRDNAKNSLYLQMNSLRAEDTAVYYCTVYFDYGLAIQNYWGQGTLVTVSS VL: EIVLTQSPATLSLSPGERATLSCKASKNVTTYVSWYQQKPGQAPRLLIYAASNRYTGIPARFSGSGSGTDFTLTISSLEPEDFAVYYCSQSYNYPYTFGQGTKLEIK >= 0.01 s⁻¹
N

The reported numbers originate from patent US20190071490A1.
